Origin of measurements: paper PMC5185321

Molecular target: hALDH1A1 (Homo sapiens, UniProt P00352)
Sequence (P00352 1-501): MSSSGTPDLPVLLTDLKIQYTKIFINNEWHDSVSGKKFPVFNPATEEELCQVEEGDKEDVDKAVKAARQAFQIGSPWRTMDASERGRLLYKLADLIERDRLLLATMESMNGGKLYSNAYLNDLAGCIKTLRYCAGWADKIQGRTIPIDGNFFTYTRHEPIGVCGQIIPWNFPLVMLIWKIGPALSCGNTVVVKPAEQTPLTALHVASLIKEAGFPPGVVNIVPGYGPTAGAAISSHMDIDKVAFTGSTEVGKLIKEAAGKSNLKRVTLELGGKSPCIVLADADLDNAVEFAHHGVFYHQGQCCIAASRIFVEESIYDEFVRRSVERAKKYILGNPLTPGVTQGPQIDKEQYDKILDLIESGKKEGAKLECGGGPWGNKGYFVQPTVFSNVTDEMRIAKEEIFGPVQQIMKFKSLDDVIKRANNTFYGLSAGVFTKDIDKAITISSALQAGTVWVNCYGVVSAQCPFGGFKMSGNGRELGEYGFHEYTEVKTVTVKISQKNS
Experiment: biochemical
parameter: IC50 (nM)

[I] Cn1c(=O)c2c(nc(OC3CCN(C(=O)C4CC4)CC3)n2Cc2ccccc2)n(C)c1=O [Compound 21]
[II] CCOC(=O)N1CCN(Cc2nc3c(c(=O)n(C)c(=O)n3C)n2Cc2cccc(C)c2)CC1 [Compound 5]
[III] Cc1cccc(Cn2c(OC3CCN(C(=O)C4CC4)CC3)nc3c2c(=O)n(C)c(=O)n3C)c1 [Compound 34]
[IV] Cc1cccc(Cn2c(OC3CCN(c4nccc(C)n4)CC3)nc3c2c(=O)n(C)c(=O)n3C)c1 [Compound 19]
Q) Sort the entries above by IC50, smallest first. Submit the labels in the order that the ranking request calls for.
A) II, III, I, IV
(II: 40 nM, III: 84 nM, I: 214 nM, IV: 19200 nM)

----------
test: Pharmacokinetics in CD1 mice; format: in vivo; settings: CD1, mouse, plasma, iv, 2 mg/kg
parameter: C0 (ng/mL)
Lab book: enter the figure in ng/mL, no units written.

Q) So what's the measured C0 for this one? CC(C)CCn1c(CN2CCN(C(=O)C3CC3)CC2)nc2c1c(=O)n(C)c(=O)n2C
A) 2070

----------
molecular target: hALDH1A1 (Homo sapiens); experiment: Primary qHTS against hALDH1A1; format: biochemical
parameter: pIC50
Entry type: numeric. Quantity: pIC50, the -log10 of concentration in molar units.

Q) So what's the measured pIC50 for this one? CCOC(=O)N1CCN(Cc2nc3c(c(=O)n(C)c(=O)n3C)n2Cc2cccc(C)c2)CC1
A) 7.08

----------
assay: Pharmacokinetics in CD1 mice; assay type: in vivo; settings: CD1, mouse, plasma, ip, 30 mg/kg
parameter: Cmax (ng/mL)
Lab book: enter the figure in ng/mL, no units written.

Q) So what's the measured Cmax for this one? CC(C)CCn1c(CN2CCN(C(=O)C3CC3)CC2)nc2c1c(=O)n(C)c(=O)n2C
A) 8080

----------
assay: Pharmacokinetics in CD1 mice; type: in vivo; details: CD1, mouse, plasma, po, 10 mg/kg
parameter: half-life (min)
Lab book: enter the figure in min, no units written.

Q) So what's the measured half-life for this one? CC(C)CCn1c(CN2CCN(C(=O)C3CC3)CC2)nc2c1c(=O)n(C)c(=O)n2C
A) 24
